Hey, just so you know, these numbers are from patent US20240000957A1.

Below is a list of entries, each paired with its recorded Ki value.
- TARGET: T1, Human EphA2 (Ecto), C-terminal polyHis (Human, UniProt P29317 24-537)
- T1 construct: extracellular domain; R&D systems 3035-A2 or in-house
- T1 sequence (P29317 24-537): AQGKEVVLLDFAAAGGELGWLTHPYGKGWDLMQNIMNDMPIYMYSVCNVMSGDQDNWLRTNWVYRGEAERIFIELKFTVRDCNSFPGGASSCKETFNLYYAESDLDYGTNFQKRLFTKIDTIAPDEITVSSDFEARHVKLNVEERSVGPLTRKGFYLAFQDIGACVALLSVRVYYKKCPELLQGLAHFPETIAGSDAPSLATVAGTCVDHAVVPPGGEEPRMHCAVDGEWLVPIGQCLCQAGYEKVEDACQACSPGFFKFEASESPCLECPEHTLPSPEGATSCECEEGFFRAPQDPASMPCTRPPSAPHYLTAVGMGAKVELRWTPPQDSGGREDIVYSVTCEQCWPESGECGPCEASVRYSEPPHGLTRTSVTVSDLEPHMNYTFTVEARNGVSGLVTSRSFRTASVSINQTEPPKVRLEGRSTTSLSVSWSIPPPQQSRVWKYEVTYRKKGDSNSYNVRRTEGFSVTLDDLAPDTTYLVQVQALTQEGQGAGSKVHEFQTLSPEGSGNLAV
- PROTOCOL_DETAILS: FP competition vs Reference Compound C
*1 amine or outer side, *2 acyl side, *3 side chain or, on linkers, in order; H or OH if unused. Bridges are numbered along the chain shown (N, C = ends). Where no end group is shown, it is not given here. [ ]: non-standard residue; d: D form. TATA = O=C(CC[*:1])N1CN(C(=O)CC[*:2])CN(C(=O)CC[*:3])C1; βAla = NCCC(=O)O; Sar = CNCC(=O)O
READOUT_NAME: Ki (nM)

INSERT INTO measurements (binder, readout_name, unit_spec, numeric_result) VALUES
  ('ACPLVNPLCLVPGWSCA (linker 2-9-16 via TATA; not fully specified (C-terminus)) [Compound 57]', 'Ki', 'nM', 35.4),
  ('ETVCLPDSRCAYMNVCA (linker 4-10-16 via TATA; not fully specified (C-terminus)) [Compound 23]', 'Ki', 'nM', 130),
  ('ACYVGKECAYMNVCA (linker 2-8-14 via TATA; not fully specified (C-terminus)) [Compound 29]', 'Ki', 'nM', 210),
  ('[βAla][Sar][Sar][Sar][Sar][Sar][Sar][Sar][Sar][Sar][Sar]ACVPDRRCAYMNVC (linker 13-19-25 via TATA; not fully specified (C-terminus); printed as (β-Ala)-Sar10-ACVPDRRCAYMNVC) [Compound 17]', 'Ki', 'nM', 85);
